These entries and their values trace back to patent US20110190267A1.

System under test: Acetylcholinesterase (h), human recombinant (HEK-293 cells) (Homo sapiens, UniProt P22303)
Sequence (P22303 32-614): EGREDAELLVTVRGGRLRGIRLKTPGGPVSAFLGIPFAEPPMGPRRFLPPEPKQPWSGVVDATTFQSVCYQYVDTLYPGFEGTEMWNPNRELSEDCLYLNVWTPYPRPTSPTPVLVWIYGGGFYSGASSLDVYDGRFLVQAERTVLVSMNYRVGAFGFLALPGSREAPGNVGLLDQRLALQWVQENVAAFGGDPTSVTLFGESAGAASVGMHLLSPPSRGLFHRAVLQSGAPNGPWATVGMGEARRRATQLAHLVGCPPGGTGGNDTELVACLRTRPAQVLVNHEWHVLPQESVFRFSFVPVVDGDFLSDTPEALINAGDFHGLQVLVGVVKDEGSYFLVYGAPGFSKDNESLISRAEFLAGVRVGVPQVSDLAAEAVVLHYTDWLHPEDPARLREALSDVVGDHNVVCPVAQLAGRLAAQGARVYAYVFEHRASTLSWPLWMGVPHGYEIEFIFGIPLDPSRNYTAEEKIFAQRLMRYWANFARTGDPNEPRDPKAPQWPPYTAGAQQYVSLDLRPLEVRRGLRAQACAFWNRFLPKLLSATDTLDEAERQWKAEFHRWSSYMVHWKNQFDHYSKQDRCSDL
Procedure details: Human acetylcholine esterase inhibition (Example 31)
Assay setup: AMTCh 50 μM, 30 min./37° C., photometry; read-out: apparent IC50
Recorded metric: IC50 (nM)
Give bare numbers, in nM.

Quick one: give measured IC50 for CCC1(c2cccc(O)c2)CCCCN(C)C1 (stereo not shown) [meptazinol]
1500

* * *

Procedure details: Pharmacokinetics of meptazinol from PABA analogue prodrugs, monkeys (Example 26)
Format: in vivo
Assay setup: monkey, plasma, po, 2 mg/kg; read-out: AUC* (mean ngh/mL), AUC0-t
Recorded metric: AUC(0-t) (ng·h/mL)
Give bare numbers, in ng·h/mL.

Quick one: give measured AUC(0-t) for CCC1(c2cccc(O)c2)CCCCN(C)C1 (stereo not shown) [meptazinol]
3.1

* * *

Procedure details: Pharmacokinetics of racemic tapentadol or tapentadol PABA carbamate, monkeys (Example 39)
Assay setup: male, cynomolgus monkey, plasma, po, 1 mg/kg tapentadol free base equivalents/kg
Recorded metric: AUC

Quick one: give measured AUC for CC[C@@H](c1cccc(O)c1)[C@@H](C)CN(C)C [tapentadol]
< 5.4 ng·h/mL

* * *

Procedure details: Pharmacokinetics of levorphanol or levorphanol PABA carbamate, monkeys (Example 45)
Format: in vivo
Assay setup: male, cynomolgus monkey, plasma, po, 5 mg levorphanol free base equivalents/kg, levorphanol in plasma after oral levorphanol, 5 mg free base equivalent/kg, Mean, read-out: t½ (converted)
Recorded metric: half-life
A complete answer gives the number and then names the unit.

Quick one: give measured half-life for `CN1CC[C@]23CCCC[C@H]2[C@H]1Cc1ccc(O)cc13`
1.7 h

* * *

Procedure details: Pharmacokinetics of meptazinol or meptazinol PABA carbamate, monkeys (Example 29)
Format: in vivo, monkey
Assay setup: monkey, plasma, iv, 1 mg/kg, meptazinol in plasma, iv meptazinol 1 mg free base equivalents/kg, individual animals, read-out: t½ (converted)
Recorded metric: half-life (min)
Numbers only, in min.

Quick one: give measured half-life for CCC1(c2cccc(O)c2)CCCCN(C)C1 (stereo not shown)
48.6

* * *

Procedure details: Pharmacokinetics of levorphanol or levorphanol PABA carbamate, monkeys (Example 45)
Type: in vivo
Assay setup: male, cynomolgus monkey, plasma, po, 5 mg levorphanol free base equivalents/kg, levorphanol in plasma after oral levorphanol, 5 mg free base equivalent/kg, single animal, read-out: t½ (converted)
Recorded metric: half-life (h)
Numbers only, in h.

Quick one: give measured half-life for `CN1CC[C@]23CCCC[C@H]2[C@H]1Cc1ccc(O)cc13`
1.5

* * *

Procedure details: Pharmacokinetics of meptazinol or meptazinol PABA carbamate, dogs (Example 27)
Assay type: in vivo, dog
Assay setup: dog, plasma, iv, 1 mg/kg, iv meptazinol 1 mg free base equivalents/kg, mean
Recorded metric: clearance (mL/min/kg)
Give bare numbers, in mL/min/kg.

Quick one: give measured clearance for CCC1(c2cccc(O)c2)CCCCN(C)C1 (stereo not shown)
62.7

* * *

Procedure details: Pharmacokinetics of butorphanol or butorphanol PABA carbamate, dogs (Example 44)
Assay type: in vivo, beagle dogs
Assay setup: male, beagle, dog, plasma, po, 0.5 mg/kg, butorphanol in plasma after oral butorphanol, 0.5 mg butorphanol free base/kg, Average, read-out: AUC
Recorded metric: AUC
A complete answer gives the number and then names the unit.

Quick one: give measured AUC for `Oc1ccc2c(c1)[C@@]13CCCC[C@@]1(O)[C@@H](C2)N(CC1CCC1)CC3`
2.05 ng·h/mL

* * *

Procedure details: Pharmacokinetics of nalbuphine or nalbuphine PABA carbamate, rats (Example 42)
Type: in vivo, Wistar rats
Assay setup: male, Wistar, rat, plasma, po, 3 mg nalbuphine free base equivalents/kg, nalbuphine PABA carbamate in plasma after oral p-aminobenzoic acid carbamate prodrug, 3 mg nalbuphine equivs/kg, Mean, read-out: Tmax
Recorded metric: Tmax (min)
One number for each entry, in min.

Quick one: give measured Tmax for O=C(Nc1ccc(C(=O)O)cc1)Oc1ccc2c3c1O[C@H]1[C@@H](O)CC[C@@]4(O)[C@@H](C2)N(CC2CCC2)CC[C@]314 [nalbuphine PABA carbamate]
15

* * *

Procedure details: Pharmacokinetics of butorphanol or butorphanol PABA carbamate, dogs (Example 44)
Format: in vivo, beagle dogs
Assay setup: male, beagle, dog, plasma, po, 0.5 mg/kg, butorphanol in plasma after oral butorphanol, 0.5 mg butorphanol free base/kg, Average, read-out: t½ (converted)
Recorded metric: half-life
A complete answer gives the number and then names the unit.

Quick one: give measured half-life for `Oc1ccc2c(c1)[C@@]13CCCC[C@@]1(O)[C@@H](C2)N(CC1CCC1)CC3`
1.6 h

* * *

Procedure details: Pharmacokinetics of nalbuphine or nalbuphine PABA carbamate, rats (Example 42)
Format: in vivo, Wistar rats
Assay setup: male, Wistar, rat, plasma, po, 3 mg nalbuphine free base equivalents/kg, nalbuphine in plasma after oral nalbuphine, 3 mg free base equivalents/kg, Mean, read-out: t½ (converted)
Recorded metric: half-life (h)
One number for each entry, in h.

Quick one: give measured half-life for `Oc1ccc2c3c1O[C@H]1[C@@H](O)CC[C@@]4(O)[C@@H](C2)N(CC2CCC2)CC[C@]314`
1.4

* * *

Procedure details: Pharmacokinetics of levorphanol or levorphanol PABA carbamate, dogs (Example 46)
Type: in vivo, Beagle dogs
Assay setup: female, beagle, dog, plasma, po, 5 mg levorphanol free base equivalents/kg, levorphanol in plasma after oral levorphanol, 5 mg free base equivalents/kg, female beagle dog; maximum of 30% extrapolation allowed; single animal; read-out: t½ (converted)
Recorded metric: half-life (min)
Answers are plain numbers, in min.

Quick one: give measured half-life for `CN1CC[C@]23CCCC[C@H]2[C@H]1Cc1ccc(O)cc13`
48

* * *

Procedure details: Pharmacokinetics of butorphanol or butorphanol PABA carbamate, monkeys (Example 43)
Format: in vivo, cynomolgus monkeys
Assay setup: male, cynomolgus monkey, 1 mg butorphanol free base equivalents/kg, butorphanol in plasma after oral butorphanol, 1.0 mg butorphanol free base/kg, Average, estimate of maximal systemic exposure
Recorded metric: AUC (ng·h/mL)
Give bare numbers, in ng·h/mL.

Quick one: give measured AUC for `Oc1ccc2c(c1)[C@@]13CCCC[C@@]1(O)[C@@H](C2)N(CC1CCC1)CC3`
0.62

* * *

Procedure details: Pharmacokinetics of levorphanol or levorphanol PABA carbamate, dogs (Example 46)
Type: in vivo, Beagle dogs
Assay setup: female, beagle, dog, plasma, po, 5 mg levorphanol free base equivalents/kg, levorphanol in plasma after oral levorphanol, 5 mg free base equivalents/kg, female beagle dog; AUClast; Mean; read-out: AUC
Recorded metric: AUC (ng·h/mL)
Give bare numbers, in ng·h/mL.

Quick one: give measured AUC for `CN1CC[C@]23CCCC[C@H]2[C@H]1Cc1ccc(O)cc13`
10

* * *

Procedure details: Pharmacokinetics of meptazinol or meptazinol PABA carbamate, monkeys (Example 29)
Assay type: in vivo, monkey
Assay setup: monkey, plasma, iv, 1 mg/kg, iv meptazinol 1 mg free base equivalents/kg, mean, read-out: Vss
Recorded metric: Vd (L)
Answers are plain numbers, in L.

Quick one: give measured Vd for CCC1(c2cccc(O)c2)CCCCN(C)C1 (stereo not shown) [meptazinol]
4.72

* * *

Procedure details: Pharmacokinetics of meptazinol or meptazinol PABA carbamate, dogs (Example 27)
Type: in vivo, dog
Assay setup: dog, plasma, po, 1 mg/kg, meptazinol in plasma, oral meptazinol 1 mg free base equivalents/kg, individual animals, read-out: Cmax
Recorded metric: Cmax (ng/mL)
Give bare numbers, in ng/mL.

Quick one: give measured Cmax for CCC1(c2cccc(O)c2)CCCCN(C)C1 (stereo not shown) [meptazinol]
4.22

* * *

Procedure details: Pharmacokinetics of dextrorphan or dextrorphan PABA carbamate, monkeys (Example 47)
Type: in vivo, cynomolgus monkeys
Assay setup: male, cynomolgus monkey, plasma, po, 5 mg dextrorphan free base equivalents/kg, dextrorphan in plasma after oral dextrorphan, 5 mg free base equivalents/kg, male cynomolgus monkeys; Mean; read-out: t½ (converted)
Recorded metric: half-life (min)
Give bare numbers, in min.

Quick one: give measured half-life for CN1CC[C@@]23CCCC[C@@H]2[C@@H]1Cc1ccc(O)cc13 [dextrorphan]
126

* * *

Procedure details: Pharmacokinetics of dextrorphan or dextrorphan PABA carbamate, monkeys (Example 47)
Format: in vivo, cynomolgus monkeys
Assay setup: male, cynomolgus monkey, plasma, po, 5 mg dextrorphan free base equivalents/kg, dextrorphan in plasma after oral dextrorphan, 5 mg free base equivalents/kg, male cynomolgus monkeys; Mean; read-out: Tmax
Recorded metric: Tmax (h)
Answers are plain numbers, in h.

Quick one: give measured Tmax for `CN1CC[C@@]23CCCC[C@@H]2[C@@H]1Cc1ccc(O)cc13`
1.6

* * *

Procedure details: Pharmacokinetics of meptazinol or meptazinol PABA carbamate, rats (Example 30)
Assay setup: rat, plasma, iv, 1 mg/kg, Vss, iv meptazinol 1 mg free base equivalents/kg; rats; mean
Recorded metric: Vd (L)
Give bare numbers, in L.

Quick one: give measured Vd for CCC1(c2cccc(O)c2)CCCCN(C)C1 (stereo not shown)
5.3

* * *

Procedure details: Pharmacokinetics of levorphanol or levorphanol PABA carbamate, monkeys (Example 45)
Type: in vivo
Assay setup: male, cynomolgus monkey, plasma, po, 5 mg levorphanol free base equivalents/kg, levorphanol in plasma after oral levorphanol, 5 mg free base equivalent/kg, Mean
Recorded metric: Tmax

Quick one: give measured Tmax for `CN1CC[C@]23CCCC[C@H]2[C@H]1Cc1ccc(O)cc13`
1.5 h
